# Test system: HL-60 (human myeloblastic)
# assay details: Tumor cell proliferation, HL-60
# Type: cell-based
# condition: read-out: Inhibitory effect on tumor cell proliferation IC50

[
  {
    "molecule": "CC(C)[C@]12O[C@H]1[C@@H]1O[C@]13[C@]1(O[C@H]1C[C@@]1(O)C4=C(CC[C@]31C)C(=O)OC4)[C@@H]2O [LLDT-8, (5R)-5-hydroxytriptolide]",
    "IC50 [nM]": 81
  }
]

* * *

# assay details: Acute toxicity (LD50) test in mice, intraperitoneal injection
# Assay type: in vivo, mouse
# condition: mouse, in vivo, ip; mice, single intraperitoneal injection, 14 days, Bliss' method

[
  {
    "compound": "CC(C)[C@]12O[C@H]1[C@@H]1O[C@]13[C@]1(O[C@H]1C[C@H]1C4=C(CC[C@@]13C)C(=O)OC4)[C@@H]2O [LLDT-2, triptolide]",
    "LD50 at 14 days (mg/kg)": 0.5
  }
]

* * *

# System: B lymphocyte
# assay details: LPS induced B-lymphocyte proliferation ([3H]thymidine)
# Assay type: cell-based, mouse
# condition: 10^−8 M; control 87373
Listing of entries alongside the reported Lymphocyte Proliferation (cpm) B cell.

[
  {
    "molecule": "CC(C)C12OC1C1OC13C1(OC1C(O)C1(O)C4=C(CCC13C)C(=O)OC4)C2O (stereo not drawn) [LLDT-23]",
    "measured target": "B lymphocyte",
    "display unit": "cpm",
    "Lymphocyte Proliferation (cpm) B cell": 76993
  },
  {
    "molecule": "CC(C)C12OC1C1OC13C1(OC1C(O)C1(O)C4=C(CCC13C)C(=O)OC4)C2O [LLDT-22, cis-(5R, 6S)-5,6-dihydroxytriptolide]",
    "measured target": "B lymphocyte",
    "display unit": "cpm",
    "Lymphocyte Proliferation (cpm) B cell": 84748
  },
  {
    "molecule": "CC(C)[C@]12O[C@H]1[C@@H]1O[C@@]13[C@@]1(C)CCC4=C(COC4=O)C1=C[C@@H]1O[C@@]13C2=O [LLDT-15, Δ^5,6-dehydrotriptonide]",
    "measured target": "B lymphocyte",
    "display unit": "cpm",
    "Lymphocyte Proliferation (cpm) B cell": 77139
  },
  {
    "molecule": "CC(C)[C@]12O[C@H]1[C@@H]1O[C@]13[C@]1(O[C@H]1[C@@H]1O[C@@]14C1=C(CC[C@]34C)C(=O)OC1)[C@H]2O [LLDT-21, (5R, 6S)-5,6-epoxy-14-epitriptolide]",
    "measured target": "B lymphocyte",
    "display unit": "cpm",
    "Lymphocyte Proliferation (cpm) B cell": 76181
  },
  {
    "molecule": "CC(C)[C@]12O[C@H]1[C@@H]1O[C@@]13[C@@]1(C)CCC4=C(COC4=O)[C@]1(O)[C@@H](O)[C@@H]1O[C@@]13C2=O [LLDT-17, cis-(5R, 6S)-5,6-dihydroxytriptonide]",
    "measured target": "B lymphocyte",
    "display unit": "cpm",
    "Lymphocyte Proliferation (cpm) B cell": 73969
  },
  {
    "molecule": "CC(C)C12OC1C1OC13C1(C)CCC4=C(COC4=O)C1=CC1OC13C2O (stereo not drawn) [LLDT-18, Δ^5,6-dehydrotriptolide]",
    "measured target": "B lymphocyte",
    "display unit": "cpm",
    "Lymphocyte Proliferation (cpm) B cell": 79808
  },
  {
    "molecule": "CC(C)[C@]12O[C@H]1[C@@H]1O[C@@]13[C@@]1(C)CCC4=C(COC4=O)[C@@]14O[C@H]4[C@@H]1O[C@@]13C2=O [LLDT-16, (5R, 6S)-5,6-epoxytriptonide]",
    "measured target": "B lymphocyte",
    "display unit": "cpm",
    "Lymphocyte Proliferation (cpm) B cell": 71877
  },
  {
    "molecule": "CC(C)C12OC1C1OC13C1(OC1C1OC14C1=C(CCC43C)C(=O)OC1)C2O [LLDT-20, (5R, 6S)-5,6-epoxytriptolide]",
    "measured target": "B lymphocyte",
    "display unit": "cpm",
    "Lymphocyte Proliferation (cpm) B cell": 78259
  },
  {
    "molecule": "CC(C)[C@]12O[C@H]1[C@@H]1O[C@]13[C@]1(O[C@H]1C=C1C4=C(CC[C@@]13C)C(=O)OC4)[C@H]2O [LLDT-19, Δ^5,6-dehydro-14-epitriptolide]",
    "measured target": "B lymphocyte",
    "display unit": "cpm",
    "Lymphocyte Proliferation (cpm) B cell": 69690
  }
]

* * *

# Tested on: HO-8910 (human ovary cancer cells)
# assay details: Tumor cell proliferation, HO-8910
# Type: cell-based
# condition: read-out: Inhibitory effect on tumor cell proliferation IC50
pIC50: −log10 of the molar value.

[
  {
    "compound": "CC(C)[C@]12O[C@H]1[C@@H]1O[C@]13[C@]1(O[C@H]1C[C@@]1(O)C4=C(CC[C@]31C)C(=O)OC4)[C@@H]2O [LLDT-8, (5R)-5-hydroxytriptolide]",
    "pIC50": 6.66
  }
]

* * *

Listing of entries alongside the reported Lymphocyte Proliferation (cpm) T cell.
# Test system: T lymphocyte
# assay details: ConA induced T-lymphocyte proliferation ([3H]thymidine)
# Assay type: cell-based, mouse
# condition: 10^−7 M; control 125789
property: Lymphocyte Proliferation (cpm) T cell

[
  {
    "compound": "CC(C)C12OC1C1OC13C1(OC1C(O)C1(O)C4=C(CCC13C)C(=O)OC4)C2O [LLDT-22, cis-(5R, 6S)-5,6-dihydroxytriptolide]",
    "measured target": "T lymphocyte",
    "display unit": "cpm",
    "value reported": 68787
  },
  {
    "compound": "CC(C)[C@]12O[C@H]1[C@@H]1O[C@]13[C@]1(O[C@H]1C=C1C4=C(CC[C@@]13C)C(=O)OC4)[C@H]2O [LLDT-19, Δ^5,6-dehydro-14-epitriptolide]",
    "measured target": "T lymphocyte",
    "display unit": "cpm",
    "value reported": 71177
  },
  {
    "compound": "CC(C)C12OC1C1OC13C1(OC1C1OC14C1=C(CCC43C)C(=O)OC1)C2O [LLDT-20, (5R, 6S)-5,6-epoxytriptolide]",
    "measured target": "T lymphocyte",
    "display unit": "cpm",
    "value reported": 54771
  }
]

* * *

# Tested on: lymphocyte
# assay details: MTT cytotoxic assay
# Assay type: cell-based, mouse
# condition: 10^−6 M; control 0.337

[
  {
    "compound": "CC(C)[C@]12O[C@H]1[C@@H]1O[C@@]13[C@@]1(C)CCC4=C(COC4=O)[C@@]14O[C@H]4[C@@H]1O[C@@]13C2=O [LLDT-16, (5R, 6S)-5,6-epoxytriptonide]",
    "Cytotoxicity OD Value": 0.304
  },
  {
    "compound": "CC(C)[C@]12O[C@H]1[C@@H]1O[C@@]13[C@@]1(C)CCC4=C(COC4=O)C1=C[C@@H]1O[C@@]13C2=O [LLDT-15, Δ^5,6-dehydrotriptonide]",
    "Cytotoxicity OD Value": 0.156
  },
  {
    "compound": "CC(C)C12OC1C1OC13C1(OC1C(O)C1(O)C4=C(CCC13C)C(=O)OC4)C2O (stereo not drawn) [LLDT-23]",
    "Cytotoxicity OD Value": 0.302
  },
  {
    "compound": "CC(C)[C@]12O[C@H]1[C@@H]1O[C@@]13[C@@]1(C)CCC4=C(COC4=O)[C@]1(O)[C@@H](O)[C@@H]1O[C@@]13C2=O [LLDT-17, cis-(5R, 6S)-5,6-dihydroxytriptonide]",
    "Cytotoxicity OD Value": 0.310
  },
  {
    "compound": "CC(C)C12OC1C1OC13C1(C)CCC4=C(COC4=O)C1=CC1OC13C2O (stereo not drawn) [LLDT-18, Δ^5,6-dehydrotriptolide]",
    "Cytotoxicity OD Value": 0.039
  },
  {
    "compound": "CC(C)[C@]12O[C@H]1[C@@H]1O[C@]13[C@]1(O[C@H]1C=C1C4=C(CC[C@@]13C)C(=O)OC4)[C@H]2O [LLDT-19, Δ^5,6-dehydro-14-epitriptolide]",
    "Cytotoxicity OD Value": 0.340
  }
]

* * *

# assay details: MTT cytotoxic assay
# Type: cell-based, mouse
# condition: mouse; restated; read-out: IC50 (lymphocyte cytotoxicity, restated)
pIC50: −log10 of the molar value.

[
  {
    "compound": "CC(C)[C@]12O[C@H]1[C@@H]1O[C@]13[C@]1(O[C@H]1C[C@H]1C4=C(CC[C@@]13C)C(=O)OC4)[C@@H]2O [LLDT-2, triptolide]",
    "pIC50": 8.70
  }
]

* * *

# Test system: A-549 (human lung carcinoma)
# assay details: Tumor cell proliferation, A-549
# Assay type: cell-based
# condition: read-out: Inhibitory effect on tumor cell proliferation IC50

[
  {
    "compound": "CC(C)[C@]12O[C@H]1[C@@H]1O[C@]13[C@]1(O[C@H]1C[C@@]1(O)C4=C(CC[C@]31C)C(=O)OC4)[C@@H]2O [LLDT-8, (5R)-5-hydroxytriptolide]",
    "measured target": "A-549 (human lung carcinoma)",
    "IC50 (nM)": 32
  }
]

Values compiled from patent US7626044B2.
